# TARGET: HA of influenza B virus B/Sichuan/379/99 (yamagata) (influenza B virus B/Sichuan/379/99)
# ASSAY_OVERVIEW: cell-based or functional assay
MEASURED_ENDPOINT: Neutralization (Ave IC50 ug/ml) (µg/mL)
Numeric answer only, unit µg/mL assumed.

Worked cases, Neutralization (Ave IC50 ug/ml) given:
FBC-39 LSL (antibody, V domains shown) VH: EVQLVESGGGLVKPGGSLRLSCAASGLSFLNAWMSWVRQAPGKGLEWVGRIKSNTDGGTTDYAAPVKGRFTISRDDSKNTLYLQMSSLKTEDTAVYYCTTDGPYSDDFRSGYAARYRYFGMDVWGQGTTVTVSS VL: DIQMTQSPSSVSASVGDRVTITCRASQDISTWLAWYQQKPGKAPKLLIYAASSLQSGVPSRFSGSGSGTDFTLTISSLQPEDFATYYCQQANSFPPTFGQGTKLEIK	0.026
FBC-39 (antibody, V domains shown) VH: EVQLVVSGGGLVKPGGSLRLSCAASGLSFLNAWMSWVRQAPGKGLEWVGRIKSNTDGGTTDYAAPVKGRFSISRDDSKNMLFLHMSSLRTEDTAVYYCATDGPYSDDFRSGYAARYRYFGMDVWGQGTTVTVSS VL: DIQMTQSPSSVSASVGDRVTITCRASQDISTWLAWYQQKPGKAPKLLIYAASSLQSGVPSRFSGSGSGTDFTLTISSLQPEDFATYFCQQANSFPPTFGQGTKLEIK	0.034
FBC-39 FTL (antibody, V domains shown) VH: EVQLVESGGGLVKPGGSLRLSCAASGFTFLNAWMSWVRQAPGKGLEWVGRIKSNTDGGTTDYAAPVKGRFTISRDDSKNTLYLQMSSLKTEDTAVYYCTTDGPYSDDFRSGYAARYRYFGMDVWGQGTTVTVSS VL: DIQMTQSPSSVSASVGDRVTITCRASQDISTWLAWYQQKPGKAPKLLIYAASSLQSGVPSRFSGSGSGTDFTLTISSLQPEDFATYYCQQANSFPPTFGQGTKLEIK	0.023
FBC-39 FSL (antibody, V domains shown) VH: EVQLVESGGGLVKPGGSLRLSCAASGFSFLNAWMSWVRQAPGKGLEWVGRIKSNTDGGTTDYAAPVKGRFTISRDDSKNTLYLQMSSLKTEDTAVYYCTTDGPYSDDFRSGYAARYRYFGMDVWGQGTTVTVSS VL: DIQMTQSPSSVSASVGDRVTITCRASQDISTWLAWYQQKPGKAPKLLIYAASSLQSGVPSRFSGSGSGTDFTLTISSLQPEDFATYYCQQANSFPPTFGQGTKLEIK	0.022

Now for the binder whose Neutralization (Ave IC50 ug/ml) we want.
What measured Neutralization (Ave IC50 ug/ml) goes with FBC-39 LTL (antibody, V domains shown) VH: EVQLVESGGGLVKPGGSLRLSCAASGLTFLNAWMSWVRQAPGKGLEWVGRIKSNTDGGTTDYAAPVKGRFTISRDDSKNTLYLQMSSLKTEDTAVYYCTTDGPYSDDFRSGYAARYRYFGMDVWGQGTTVTVSS VL: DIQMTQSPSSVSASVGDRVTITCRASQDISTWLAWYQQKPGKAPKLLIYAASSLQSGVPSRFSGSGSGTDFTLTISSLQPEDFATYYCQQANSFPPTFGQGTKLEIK ?
0.023
